Below: a set of entries, each annotated with reported abundance fitness.
B1: POU domain, class 3, transcription factor 4, residues 280 to 335; numbered along this chain, P49335 (parent)
chain: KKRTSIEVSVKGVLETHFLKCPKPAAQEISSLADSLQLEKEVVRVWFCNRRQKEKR

# Variants of: B1
# assay: abundance fitness (aPCA) (normalised: wild type 0, dead -1); higher = more abundant; growth selection in yeast, the domain comes from the species named
# protocol conditions: Homo sapiens
// no unit, no text: just the number

These solved cases illustrate the format of a correct answer.
F18T    -0.732
C48H    0.068
A25P    -0.31
P22R    -0.37
T4W    -0.486

INPUT: So what's the measured abundance fitness for this one? C21D
OUTPUT: 0.059

INPUT: So what's the measured abundance fitness for this one? R51E
OUTPUT: -0.258

INPUT: So what's the measured abundance fitness for this one? T16A
OUTPUT: 0.197

INPUT: So what's the measured abundance fitness for this one? P22S
OUTPUT: -0.427

INPUT: So what's the measured abundance fitness for this one? N49S
OUTPUT: -0.308
